The reported numbers originate from a compilation of properties of binary mixtures.

// viscosity lookup, one value per entry
# run description: xn = mol fraction of the nth substance listed
# settings: 298.15 K; 101 kPa; x2 = 0.5
Only the number, expressed in mPa·s, is required.

Record summary for CCCC[n+]1ccn(C)c1C.F[B-](F)(F)F + OCCOCCOCCOCCO : reported viscosity = 82.1

Recorded result, C[N+](C)(C)CCO.O=S(=O)([N-]S(=O)(=O)C(F)(F)F)C(F)(F)F + OCCOCCOCCOCCO , viscosity: 87

For reference, reported viscosity for CCCn1cc[n+](C)c1C.O=S(=O)([N-]S(=O)(=O)C(F)(F)F)C(F)(F)F + OCCOCCOCCOCCO stands at 56.1

Lab note: measured viscosity of CCCC[N+]1(C)CCCCC1.O=S(=O)([N-]S(=O)(=O)C(F)(F)F)C(F)(F)F + OCCOCCOCCOCCO was 79.5
